Test system: SK-MEL-5
Assay summary: NCI tumour cell line growth inhibition, 48 h
Activity calls are given as the source filed them. Rule as the data show it: active = GI50 up to about 1.1 µM and inactive = higher.
Outcome codes: label 1 for active, label 0 for inactive

• CC(C)(C)C1=NC(=P(c2ccccc2)(c2ccccc2)c2ccccc2)C(=O)O1 = label 0
• O=C(c1ccccc1)c1cn(/N=C\c2ccccc2)c(=O)nc1-c1ccccc1 = label 0
• Cc1ccc(S(=O)(=O)c2ccsc2NC(=O)C(F)(F)F)cc1 = label 0
• COc1ccccc1/C=C1\NC(=S)N(/C=C2\C(=O)Oc3ccccc3C2=O)C1=O = label 0
• COC(=O)c1ccc(-n2c(C)nc(=O)c(-c3ccccc3)c2C)cc1 = label 0
• CC(C)(C)OC(=O)NC(Cc1ccccc1)OCc1ccccc1 (configuration not stated) = label 0
• COc1ccc(OC)c(CNc2ccc(O)c(C(=O)NCCc3ccc(F)cc3)c2)c1 = label 0
• COC(=O)C(=O)C(C(=O)C=C(C)C)C(=O)C(=O)Nc1cc(C(F)(F)F)ccc1Cl (configuration not stated) = label 0
• O=C(c1ccc(Cl)cc1)N(C(=S)OC12CC3CC(CC(C3)C1)C2)c1ccccc1 = label 0
• CCSc1nc(N2CCOCC2)c2cn[nH]c2n1 = label 0
• CC1=CC(=O)/C(=C/NC(=O)NN)C(=O)O1 = label 0
• CC1(C)OC2CN(C(=O)OCc3ccccc3)C(CO)C2O1 (configuration not stated) = label 0
• COc1ccc2nc3c([N+](=O)[O-])ccc4c3c(c2c1)N(CCCN(C)C)C(=S)N4CCCN(C)C = label 0
• C=C1CC[C@@H]2C(C)(C)CCC[C@@]2(C)[C@@H]1Cc1cc(O)ccc1O = label 0
• S=C(S)NCCCn1ccnc1 = label 0
• O=c1c2c(c1=O)-c1ccccc1CN2 = label 0
• C[N+](C)(C)CC1CCCC(C[N+](C)(C)C)C1=NO (configuration not stated) = label 0
• O=C(OC1OC2COC(=O)c3cc(O)c(O)c(O)c3-c3c(cc(O)c(O)c3O)C(=O)OC3C2OC(=O)[C@@]24CC(=O)[C@@](O)(OC25C(=O)O[C@H]2[C@@H](O)CO[C@@]25O)C2(O)Oc5c(O)c(O)cc(c5C24)C(=O)OC13)c1cc(O)c(O)c(O)c1 (some centres not stated) = label 0
• O=c1oc2ccccc2cc1P(=O)(O)O = label 0
• C[C@]12CCC3c4ccc(O)cc4CC[C@H]3C1CC(=O)N(N)C2=O (some centres not stated) = label 0
• Cc1cc2c3ccccc3[nH]c2c2ccnc(C)c12 = label 0
• O=C1c2cc([N+](=O)[O-])sc2C(=O)c2ccsc21 = label 1
• CCOC(=O)/C=C/[C@H](O[Si](CC)(CC)CC)C(C)(C)C = label 0
• CC#CCOC(=O)c1ccccc1OC(C)=O = label 0
• O=C(O)c1cccc2cccc(-c3c4ccc(=O)cc-4oc4cc(O)ccc34)c12 = label 0
• Cc1cn(C2OC(C)(CO)C(O)C2O)c(=O)[nH]c1=O (configuration not stated) = label 0
• COc1cc(NC(C)=O)ccc1C(=O)NN1C(=O)/C(=C/c2ccco2)N=C1c1ccccc1 = label 0
• CCC1C[N+]23CCc4c([nH]c5ccccc45)C2CC1CC3 (configuration not stated) = label 0
• CCCCCCCCCCCCCCC(C)CCC(=O)O (configuration not stated) = label 0
• COc1cc(OC)c(SSCCCCS(=O)O)c(OC)c1 = label 0
• Nc1c(Cl)c([N+](=O)[O-])cc2c1OCCCCO2 = label 0
• COc1ccc(/C=C2\Oc3cc(OC(C)=O)ccc3C2=O)cc1 = label 0
• CC(C)(C)OC(=O)NCC(c1c[nH]c2ccccc12)c1c[nH]c2ccccc12 = label 0
• NS(=O)(=O)c1ccc(NC(=S)N/C=C2\C(=O)Nc3ccccc3C2=O)cc1 = label 0
• CCN(CC)CCNc1ccc2ncn3c4ccc(O)cc4c(=O)c1c23 = label 1
• COc1ccc(N2C(=O)C3c4[nH]c5cc(C)ccc5c4C4CCC(C(C)(C)C)CC4C3C2=O)cc1 (configuration not stated) = label 0
• COc1ccc2nc3cc(Cl)ccc3c(NCCCN(CCCl)CCCl)c2c1 = label 1
• Cc1cc(NS(=O)(=O)c2ccc(Nc3c4ccccc4nc4c(C(=O)N5CCN(CCO)CC5)ccc(Cl)c34)cc2)no1 = label 0
• O=[N+]([O-])c1ccccc1S(=O)(=O)c1cc(Cl)cc2c1NCCC2 = label 0
• O=Cc1ccccc1COC(=O)c1cc(C(=O)OCc2ccccc2C=O)c(C(=O)OCc2ccccc2C=O)cc1C(=O)OCc1ccccc1C=O = label 0
• O=C(CCCn1cnc([N+](=O)[O-])n1)NCCCn1ccnc1[N+](=O)[O-] = label 0
• CN(C)c1ccc(/C=C2\CCc3ccccc3C2=O)cc1Br = label 0

----------
System: ACHN
Assay summary: NCI tumour cell line growth inhibition, 48 h
The source made the active and inactive calls. Rule as the data show it: active = GI50 up to about 1.1 µM and inactive = higher.
Reported property: GI50

* CNc1c2c(c3nc4ccccc4c4c3c1N=C4)NCCC2=O [PLAKINIDINE A] | 2.07 µM (inactive)
* c1ccc(CNn2nnc3ccccc32)cc1 | > 100 µM (inactive)
* Cc1ccc(C(CC(=O)C(C)(C)CN2CCCCC2)SCCS(=O)(=O)O)cc1 (stereo unspecified) | 25.2 µM (inactive)
* O=C(N/N=C/c1ccc(Cl)cc1)c1ccccc1Nc1ccccc1C(=O)N/N=C/c1ccc(Cl)cc1 | > 100 µM (inactive)
* COC(=O)c1ccc(-n2c(C)nc(=O)c(-c3ccccc3)c2C)cc1 | > 100 µM (inactive)
* O=c1ncccn1C1OC(CO)C(O)C1O (stereo unspecified) | > 100 µM (inactive)

----------
Tested on: UO-31
Assay summary: NCI tumour cell line growth inhibition, 48 h
Calls of active or inactive are those of the source. Rule as the data show it: active = GI50 up to about 1.1 µM and inactive = higher. Starred links: 1 amine or outer side, 2 acyl side, 3 side chain; linkers in the order of their positions; H or OH if unused. Non-standard residues stand in square brackets, D forms with d. Residues, ends and D or L forms follow the SMILES beside them. *: point of attachment. X34 = CC(=O)N(C)SCC(N[*:1])C(=O)[*:2]; Cbz = O=C(OCc1ccccc1)*; Bn = c1ccc(C*)cc1; For = O=C*
Outcome codes: class 1 (active), class 0 (inactive)

• CCCCN1C(=O)CC2[C@@H]3CCc4cc(OC)ccc4C3CC[C@]2(C)C1=O (some centres undefined) = class 0
• N#CCCC(CC#N)N1CCN(C(CC#N)CCC#N)CC1 (centres undefined) = class 0
• C/C(=N\NC(=S)NNC(=S)N(C)c1ccccc1)c1ccccn1 = class 1
• CC(=O)N(C)SCC(NC(=O)C(Cc1ccccc1)NC(=O)OCc1ccccc1)C(=O)NC(Cc1ccccc1)C(=O)NC(Cc1cn(C=O)c2ccccc12)C(=O)NC(CCCCNC(=O)OCc1ccccc1)C(=O)NC(C(=O)NC(CSN(C)C(C)=O)C(=O)NC(C(N)=O)C(C)OCc1ccccc1)C(C)OCc1ccccc1 (centres undefined) (Cbz-F[X34]FW(For)K(Cbz)T(Bn)[X34]T(Bn)-NH2; configuration not given here) = class 0
• O=C1C=C[C@@]23CC1C(O)C[C@H]2C=Cc1ccccc13 (some centres undefined) = class 0
• CCOC(=O)C1C(C(C)C)C2(C#N)C(=N)OC1(C)C2(C#N)C#N (centres undefined) = class 0
• CCCCc1ccc(Nc2nc(O)c3ncn(COCCO)c3n2)cc1 = class 0
• O=c1c2ccccc2c(=O)c2c1cc(Cl)c1[nH]c3c([nH]c12)c(Cl)cc1c(=O)c2ccccc2c(=O)c13 = class 0
• C[C@]12CCC3c4ccc(O)cc4CC[C@H]3C1CC(=O)N(N)C2=O (some centres undefined) = class 0

----------
Reported values of GI50 for individual entries
Tested on: KM-20L2
Assay summary: NCI tumour cell line growth inhibition, 48 h
Activity calls are given as the source filed them. Rule as the data show it: active = GI50 up to about 1.1 µM and inactive = higher.
Reported property: GI50

• NC1=NS(=O)(=O)Nc2nc(-c3ccc(Cl)cc3)[nH]c21 = > 100 µM (inactive)
• C[C@@](O)(/C=C/[C@H]1CC=CC(=O)O1)[C@@H](C[C@@H](O)\C=C/C=C\C=C\CO)OP(=O)(O)O [FOSTRIECIN SODIUM] = 1.03 µM (active)
• Cc1c2n(c(=O)[nH]c1=O)C1OC(CO)C(O2)C1N=[N+]=[N-] (centres undefined) = > 100 µM (inactive)
• C=C1CCC2C(C)(CO)C(O)CCC2(C)C1C/C=C1/CCOC1=O (centres undefined) = > 100 µM (inactive)
• O=C1/C(=C/c2ccccc2)CN(C(=O)C(F)(F)F)C/C1=C\c1ccccc1 = 2.11 µM (inactive)
• NC(=O)C12CCC1C1CCCCC12N1CCOCC1 (centres undefined) = > 100 µM (inactive)
• Cc1ccc(NC(=O)CC2C(=O)Nc3ccccc3[S+]2[O-])cc1C (centres undefined) = > 100 µM (inactive)
• O=C1c2ccccc2C(=O)C1(Cl)C1(S(=O)(=O)O)c2ccccc2-c2ccccc21 = > 100 µM (inactive)
• Cc1ccc(/N=N/c2c(-c3ccccc3)nn(C(=O)CC(=O)Nc3ccc(Cl)cc3)c2-c2ccccc2)cc1 = 63.4 µM (inactive)
• O=C(/C=C/c1ccc(Cl)c(Cl)c1)C1CCC(Cl)CC1 (centres undefined) = 20.7 µM (inactive)
• COc1ccc(C(=O)O)c2c(=O)c3ccccc3[nH]c12 = > 100 µM (inactive)
• CC1CC2C3CC(F)C4=CC(=O)C=CC4(C)C3(F)C(O)CC2(C)C1(O)C(=O)COC(=O)C(C)(C)C (centres undefined) = > 100 µM (inactive)
• CN(C)c1n/c(=N/c2ccc3c(c2)OCO3)ss1 = 39.9 µM (inactive)
• O=C1c2ccccc2C(=O)c2c1ccc1c2N=C(c2ccc(F)cc2)CC(c2ccc(Cl)c(Cl)c2)N1 (centres undefined) = 15.7 µM (inactive)

Ref: ChEMBL document CHEMBL1201862
